assaySystem: TRPM8 (hTRPM8) (Homo sapiens)
Sequence (Q7Z2W7 whole entry): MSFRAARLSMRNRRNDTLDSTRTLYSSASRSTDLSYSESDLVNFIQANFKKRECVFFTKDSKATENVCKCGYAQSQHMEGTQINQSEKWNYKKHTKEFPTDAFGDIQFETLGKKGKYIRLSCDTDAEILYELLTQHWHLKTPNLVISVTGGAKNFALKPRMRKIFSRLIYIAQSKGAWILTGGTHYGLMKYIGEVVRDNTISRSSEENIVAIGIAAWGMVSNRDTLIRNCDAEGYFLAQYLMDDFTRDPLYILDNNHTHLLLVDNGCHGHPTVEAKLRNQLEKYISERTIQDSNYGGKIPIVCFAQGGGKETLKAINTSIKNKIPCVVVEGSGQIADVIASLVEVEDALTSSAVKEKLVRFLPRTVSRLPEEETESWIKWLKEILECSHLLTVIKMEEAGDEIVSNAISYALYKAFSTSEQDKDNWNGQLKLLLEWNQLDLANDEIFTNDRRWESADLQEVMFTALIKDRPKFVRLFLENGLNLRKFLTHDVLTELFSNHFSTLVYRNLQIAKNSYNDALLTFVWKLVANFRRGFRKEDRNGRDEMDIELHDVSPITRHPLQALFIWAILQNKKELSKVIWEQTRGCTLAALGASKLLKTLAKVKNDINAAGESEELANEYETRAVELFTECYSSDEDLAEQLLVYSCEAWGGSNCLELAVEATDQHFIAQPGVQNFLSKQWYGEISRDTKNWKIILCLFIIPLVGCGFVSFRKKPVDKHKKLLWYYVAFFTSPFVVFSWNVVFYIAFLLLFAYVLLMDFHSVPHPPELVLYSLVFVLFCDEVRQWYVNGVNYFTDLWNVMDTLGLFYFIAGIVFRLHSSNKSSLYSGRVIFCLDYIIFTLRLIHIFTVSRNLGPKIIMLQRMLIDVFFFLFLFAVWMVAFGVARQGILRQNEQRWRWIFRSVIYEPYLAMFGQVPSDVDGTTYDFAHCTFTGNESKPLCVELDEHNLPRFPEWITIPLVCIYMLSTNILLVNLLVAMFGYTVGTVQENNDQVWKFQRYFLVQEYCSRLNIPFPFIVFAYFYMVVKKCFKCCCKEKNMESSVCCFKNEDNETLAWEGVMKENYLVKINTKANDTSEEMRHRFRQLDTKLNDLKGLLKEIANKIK
experimentDescription: Fluo-4 calcium flux assay, HEK-293 TRPM8 cells
measurementContext: antagonist mode; 30 min incubation; normalized to icilin (50 µM) response
resultType: IC50 (µM)
Please give a number only; it is taken to be in µM.

Summary for this compound, COc1c(I)cc(CCN)cc1I : IC50 is 112
